Assay: Single dose pharmacokinetics (SDPK) in female C57BL/6J mice
Type: in vivo
Settings: female, C57BL/6J, mouse, plasma; prior art compounds (Table 4), 1 mg/kg, iv
Measure: AUC(0-t) (ng·h/mL)
One number for each entry, in ng·h/mL.

Kindly note the recorded AUC(0-t) for CCn1nc(C)c(O)c1-c1nnc(-c2nc(C(N)=O)cc3c2cnn3C)[nH]1 [AC01, reference compound] , which is 102

###

For each entry below, report its C0 value.
Experiment: Single dose pharmacokinetics (SDPK) in female C57BL/6J mice
Type: in vivo
Details: mouse; 1 mg/kg, iv, female C57BL/6J mice, plasma
Give bare numbers, in ng/mL.

| Compound | C0 [ng/mL] |
| --- | --- |
| Cc1cc2c(C(N)=O)nn(-c3nc(-c4c(O)c(C)nn4CCc4ccccc4)n[nH]3)c2cn1 [Example 40] | 1600 |

Give C0 for each listed item.
1. CCn1nc(C)c(O)c1-c1n[nH]c(-c2c(F)c(C(N)=O)n3cc(C)ncc23)n1 [Example 4]
2. CCCn1nc(C)c(O)c1-c1n[nH]c(-c2c(F)c(C(N)=O)n3cc(C)ncc23)n1 [Example 79]
3. CCCn1nc(C)c(O)c1-c1n[nH]c(-n2nc(C(N)=O)c3cc(C)ncc32)n1 [Example 31]

1: 1720; 2: 2200; 3: 5500
